system tested: T1, BMP-12 (UniProt Q7Z4P5 322-450, limits assumed)
T1 construct: also called BMP12/GDF7
T1 sequence (looked up): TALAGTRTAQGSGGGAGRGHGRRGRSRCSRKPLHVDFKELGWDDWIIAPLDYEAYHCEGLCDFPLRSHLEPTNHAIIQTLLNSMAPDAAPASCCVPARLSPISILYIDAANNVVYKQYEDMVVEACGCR
test protocol: peptide resin, filter plate; load 3: 25 mM Na Acetate pH 5.0
Description: The coupled resins, plus an unconjugated resin for use as a control, were suspended in 16% ethanol, 150 mM NaCl, and 20 mM Tris buffer at pH 7.5 at a 25% v/v ratio (e.g., 25% ethanol, 75% Tris buffer). […] The protein concentration in the filtrate, or flow-through, was calculated as $(A280-A320)/1.3$. […] The protein concentration was measured in the new filtrate as described above. […]
No end group written: not given here.
value type: 4M Gnd, 50 mM NaAc pH 4 Strip Conc (mg/ml)
Give bare numbers, in mg/ml.

Example binders with recorded 4M Gnd, 50 mM NaAc pH 4 Strip Conc:
binder	readout unit	4M Gnd, 50 mM NaAc pH 4 Strip Conc
Ac-VAPPGYHAFYSHGEK [BMP2 N-trunc_2 peptide 745]	mg/ml	0.026
Ac-ELGWDDWIIAPLDYEAYHSEGLK [BMP12 N-trun_1S peptide 749]	mg/ml	0.126
Ac-LYVSDVGWNDWIVK (not fully specified (residue 3); printed as Ac-LYV**SDVGWNDWIVK; also: ** after V3 not explained) [BMP2 C-trunc_2 peptide 746]	mg/ml	0.1
Ac-RDLGWQDWIIAPEGYAAFYSDGEK [BMP5 peptide 748]	mg/ml	0.14

Go through the list and state 4M Gnd, 50 mM NaAc pH 4 Strip Conc for each entry.
1. Ac-LYVDFSDVGWNDWIVAPPGYHAFYSHGEK [BMP2 Full peptide 747]
2. Ac-SDVGWNDWIVAPPGYHAFYSHGEK [BMP2 N-trun 1S peptide 751]
3. Ac-SDVGWNDWIVAPPGYHAFYCHGEK [BMP2 N-trun peptide 750]

[0.111, 0.07, 0.072]
